Ref: patent US10799456B2

Test system: HIV-2(287) replication
Assay: Antiviral activity in HIV-infected CEM-174 cells
Type: cell-based
Details: Human immunodeficiency virus 2, CEM174, read-out: EC50 (nM), Single agent controls, single agent
result type: EC50 (nM)

• CC(C)c1nc(CN(C)C(=O)N[C@H](C(=O)N[C@@H](Cc2ccccc2)C[C@H](O)[C@H](Cc2ccccc2)NC(=O)OCc2cncs2)C(C)C)cs1 [Ritonavir (RTV), Ritonavir] = 530

----------
Test: Plasma drug exposure of three multi-drug lipid formulations vs free drug in primates
Conditions: monkey, in vivo, sc, AUC Lipid Drug 0-168 h, LPV/EFV/TFV combination
result type: AUC (ng·h/mL)

* O=C1Nc2ccc(Cl)cc2[C@@](C#CC2CC2)(C(F)(F)F)O1 [Efavirenz] | 31200

----------
Test: % Drug association to particles by assembly method
Format: physicochemical
Measured % Drug Association to Particles, LNPs from single, miscible solvent method values are reported for all entries that follow.
result type: % Drug Association to Particles, LNPs from single, miscible solvent method

* COC(=O)N[C@H](C(=O)N[C@@H](Cc1ccccc1)[C@@H](O)CN(Cc1ccc(-c2ccccn2)cc1)NC(=O)[C@@H](NC(=O)OC)C(C)(C)C)C(C)(C)C [Atazanavir (ATV), Atazanavir] | 90-100%
* O=C1Nc2ccc(Cl)cc2[C@@](C#CC2CC2)(C(F)(F)F)O1 [Efavirenz] | 80-90%
* CC(C)c1nc(CN(C)C(=O)N[C@H](C(=O)N[C@@H](Cc2ccccc2)C[C@H](O)[C@H](Cc2ccccc2)NC(=O)OCc2cncs2)C(C)C)cs1 [Ritonavir (RTV), Ritonavir] | 90-100%
* C[C@H](Cn1cnc2c(N)ncnc21)OCP(=O)(O)O [Tenofovir (TFV)] | 78-85%
* Cc1cc(/C=C/C#N)cc(C)c1Nc1ccnc(Nc2ccc(C#N)cc2)n1 [Rilpivirine] | 90-100%
* Cc1nnc(C(=O)NC(C)(C)c2nc(C(=O)NCc3ccc(F)cc3)c(O)c(=O)n2C)o1 [Raltegravir] | 75-89%
* Cc1cccc(C)c1OCC(=O)N[C@@H](Cc1ccccc1)[C@@H](O)C[C@H](Cc1ccccc1)NC(=O)[C@H](C(C)C)N1CCCNC1=O [Lopinavir (LPV), Lopinavir] | 90-100%
* Nc1ccn([C@@H]2CS[C@H](CO)O2)c(=O)n1 [Lamivudine] | 85%
* Nc1nc(=O)n([C@@H]2CS[C@H](CO)O2)cc1F [Emtricitabine] | 78-80%

----------
Test: % Drug association to particles by assembly method
Type: physicochemical
result type: % Drug Association to Particles, LNPs from mixture of dual solvent method

* CC(C)c1nc(CN(C)C(=O)N[C@H](C(=O)N[C@@H](Cc2ccccc2)C[C@H](O)[C@H](Cc2ccccc2)NC(=O)OCc2cncs2)C(C)C)cs1 [Ritonavir (RTV), Ritonavir] | 80-100%
* Cc1cccc(C)c1OCC(=O)N[C@@H](Cc1ccccc1)[C@@H](O)C[C@H](Cc1ccccc1)NC(=O)[C@H](C(C)C)N1CCCNC1=O | 80-100%
* C[C@H](Cn1cnc2c(N)ncnc21)OCP(=O)(O)O | 7-30%
* Nc1nc(=O)n([C@@H]2CS[C@H](CO)O2)cc1F | 3-10%
* COC(=O)N[C@H](C(=O)N[C@@H](Cc1ccccc1)[C@@H](O)CN(Cc1ccc(-c2ccccn2)cc1)NC(=O)[C@@H](NC(=O)OC)C(C)(C)C)C(C)(C)C | 90-100%
* Nc1ccn([C@@H]2CS[C@H](CO)O2)c(=O)n1 | 10-30%
